Biological target: UGT2B7 (Homo sapiens, UniProt P16662)
Construct: Supersome recombinant human enzyme (Corning), microsomal preparation
Sequence (P16662 24-529): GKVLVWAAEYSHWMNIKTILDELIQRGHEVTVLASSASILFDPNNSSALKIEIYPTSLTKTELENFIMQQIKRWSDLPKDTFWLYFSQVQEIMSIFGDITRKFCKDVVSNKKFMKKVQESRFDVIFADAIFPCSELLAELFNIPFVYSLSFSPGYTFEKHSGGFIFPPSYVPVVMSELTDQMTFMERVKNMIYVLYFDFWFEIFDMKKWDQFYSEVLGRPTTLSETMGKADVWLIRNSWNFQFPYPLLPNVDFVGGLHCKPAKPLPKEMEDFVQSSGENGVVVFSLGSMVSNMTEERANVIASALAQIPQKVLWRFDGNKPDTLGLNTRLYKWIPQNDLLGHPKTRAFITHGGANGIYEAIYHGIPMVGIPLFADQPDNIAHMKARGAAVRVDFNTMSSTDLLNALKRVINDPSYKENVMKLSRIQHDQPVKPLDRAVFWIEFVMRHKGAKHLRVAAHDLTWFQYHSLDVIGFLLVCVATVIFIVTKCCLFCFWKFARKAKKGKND
Assay: 4MU glucuronidation, HPLC of 4MUG
pIC50: −log10 of the molar value.
endpoint.label: pIC50

(Q) What value of measured pIC50 is listed for CC[C@@H]1CN2CCc3c([nH]c4cccc(OC)c34)[C@@H]2C[C@@H]1/C(=C\OC)C(=O)OC [mitragynine] ?
(A) < 3.70

====

Biological target: UGT1A6 (Homo sapiens, UniProt P19224)
Construct: Supersome recombinant human enzyme (Corning), microsomal preparation
Sequence (P19224 27-532): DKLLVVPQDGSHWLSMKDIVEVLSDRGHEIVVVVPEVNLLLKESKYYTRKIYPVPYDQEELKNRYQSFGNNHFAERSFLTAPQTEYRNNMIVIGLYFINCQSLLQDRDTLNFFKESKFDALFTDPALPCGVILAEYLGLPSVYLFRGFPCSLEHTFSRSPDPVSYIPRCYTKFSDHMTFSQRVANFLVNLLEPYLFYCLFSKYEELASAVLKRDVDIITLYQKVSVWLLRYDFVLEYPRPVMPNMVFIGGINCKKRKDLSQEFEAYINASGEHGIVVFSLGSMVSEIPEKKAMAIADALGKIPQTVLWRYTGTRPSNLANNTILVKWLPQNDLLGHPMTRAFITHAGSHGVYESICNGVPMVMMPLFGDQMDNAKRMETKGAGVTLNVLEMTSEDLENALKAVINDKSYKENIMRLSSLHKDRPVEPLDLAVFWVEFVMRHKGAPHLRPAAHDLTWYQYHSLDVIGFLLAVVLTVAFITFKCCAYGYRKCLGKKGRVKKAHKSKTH
Assay: 4MU glucuronidation, HPLC of 4MUG
endpoint.label: IC50 (µM)
Give bare numbers, in µM.

(Q) What value of measured IC50 is listed for CC[C@@H]1CN2CCc3c([nH]c4cccc(OC)c34)[C@@H]2C[C@@H]1/C(=C\OC)C(=O)OC [mitragynine] ?
(A) 121

====

Target: UGT1A9 (Homo sapiens)
Construct: Supersome recombinant human enzyme (Corning), microsomal preparation
Sequence (O60656 26-530): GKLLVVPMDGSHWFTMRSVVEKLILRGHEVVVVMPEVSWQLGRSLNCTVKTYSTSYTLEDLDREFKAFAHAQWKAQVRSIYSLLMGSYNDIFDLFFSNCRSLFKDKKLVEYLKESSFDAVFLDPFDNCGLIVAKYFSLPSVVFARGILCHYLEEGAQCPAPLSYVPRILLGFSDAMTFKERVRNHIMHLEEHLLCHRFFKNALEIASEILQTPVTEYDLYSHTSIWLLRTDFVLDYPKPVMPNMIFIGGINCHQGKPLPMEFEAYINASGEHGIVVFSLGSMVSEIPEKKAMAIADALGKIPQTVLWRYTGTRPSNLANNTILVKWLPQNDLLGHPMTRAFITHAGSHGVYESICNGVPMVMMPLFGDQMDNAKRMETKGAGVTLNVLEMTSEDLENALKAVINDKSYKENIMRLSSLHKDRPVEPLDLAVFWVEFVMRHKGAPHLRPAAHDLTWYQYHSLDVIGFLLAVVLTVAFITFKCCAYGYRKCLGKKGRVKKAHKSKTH
Assay: 4MU glucuronidation, HPLC of 4MUG, Dixon plot
Format: biochemical
endpoint.label: Ki (µM)
Give bare numbers, in µM.

(Q) Form field - read-out: Ki; system: UGT1A9 (Homo sapiens); submitted item: "CC[C@@H]1CN2CCc3c([nH]c4cccc(OC)c34)[C@@H]2C[C@@H]1/C(=C\OC)C(=O)OC"
(A) 114

====

Target: UGT1A1 (Homo sapiens)
Construct: Supersome recombinant human enzyme (Corning), microsomal preparation
Sequence (P22309 26-533): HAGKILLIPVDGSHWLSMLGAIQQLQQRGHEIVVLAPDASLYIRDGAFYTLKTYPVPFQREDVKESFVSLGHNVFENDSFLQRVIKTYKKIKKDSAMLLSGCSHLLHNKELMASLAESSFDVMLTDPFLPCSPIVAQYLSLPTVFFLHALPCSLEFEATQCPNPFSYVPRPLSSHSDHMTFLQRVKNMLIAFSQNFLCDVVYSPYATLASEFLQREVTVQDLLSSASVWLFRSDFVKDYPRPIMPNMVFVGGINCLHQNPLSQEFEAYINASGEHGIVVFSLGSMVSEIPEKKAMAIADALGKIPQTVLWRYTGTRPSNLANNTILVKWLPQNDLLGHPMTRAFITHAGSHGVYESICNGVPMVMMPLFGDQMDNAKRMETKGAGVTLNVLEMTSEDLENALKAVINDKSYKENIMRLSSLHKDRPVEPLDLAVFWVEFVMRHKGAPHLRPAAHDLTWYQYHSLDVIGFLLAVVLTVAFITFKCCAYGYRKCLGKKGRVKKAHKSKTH
Test: 4MU glucuronidation, HPLC of 4MUG
endpoint.label: IC50

(Q) Form field - read-out: IC50; system: UGT1A1 (Homo sapiens); submitted item: "CC[C@@H]1CN2CCc3c([nH]c4cccc(OC)c34)[C@@H]2C[C@@H]1/C(=C\OC)C(=O)OC"
(A) > 200 µM
